- Tested on: E. cloacae 963
- test_name: in vitro antibacterial activity, agar plate dilution method (MIC)
- Assay type: cell-based
- setup_conditions: Enterobacter cloacae, 16 h; E. cloacae 963; 10^6 CFU/ml; read-out: Minimum Inhibitory Concentration (MIC)
experimental_readout: MIC

CO/N=C(\C(=O)N[C@@H]1C(=O)N2C(C(=O)O)=C(CSc3nnc(-c4ccc(O)c(O)c4)o3)CS[C@H]12)c1csc(N)n1	< 6 ng/mL
CO/N=C(\C(=O)N[C@@H]1C(=O)N2C(C(=O)O)=C(CSc3nnc(-c4ccc(OC(C)=O)c(OC(C)=O)c4)o3)CS[C@H]12)c1csc(N)n1	< 6 ng/mL
CCO/N=C(\C(=O)N[C@@H]1C(=O)N2C(C(=O)O)=C(CSc3nnc(-c4ccc(OC(C)=O)c(OC(C)=O)c4)o3)CS[C@H]12)c1csc(N)n1	< 6 ng/mL
